- subject_of_test: T1, human EpCAM (epithelial cell adhesion/activating molecule) (human, UniProt P16422 24-314)
- T1 sequence: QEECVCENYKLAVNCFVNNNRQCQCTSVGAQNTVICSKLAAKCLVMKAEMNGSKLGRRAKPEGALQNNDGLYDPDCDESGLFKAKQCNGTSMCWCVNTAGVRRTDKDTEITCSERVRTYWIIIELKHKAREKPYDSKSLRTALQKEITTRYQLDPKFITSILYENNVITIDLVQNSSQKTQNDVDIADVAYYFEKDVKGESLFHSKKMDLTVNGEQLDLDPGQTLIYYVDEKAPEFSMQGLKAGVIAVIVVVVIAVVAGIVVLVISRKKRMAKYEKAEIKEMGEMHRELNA
- measurement_description: cell-based or functional assay
value_kind: % Annexin V/PI-positive cells, LNCaP, 3.0 µg/ml mAb
Form field: result (number plus unit)

Known results for binders:
murine monoclonal antibody 2D11 (antibody, mouse IgG1, V domains shown, Mouse IgG1, kappa, from hybridoma; also called m322-2D11.19) VH: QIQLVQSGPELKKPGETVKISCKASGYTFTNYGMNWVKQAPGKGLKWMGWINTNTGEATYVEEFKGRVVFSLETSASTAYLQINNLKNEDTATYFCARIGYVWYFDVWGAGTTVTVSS VL: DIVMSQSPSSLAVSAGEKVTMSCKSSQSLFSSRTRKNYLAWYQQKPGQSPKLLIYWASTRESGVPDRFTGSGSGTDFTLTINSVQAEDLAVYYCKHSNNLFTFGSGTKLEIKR : 39%
murine monoclonal antibody 4D2 (antibody, mouse IgG1, V domains shown, Mouse IgG1, kappa, from hybridoma; also called m338-4D2.20) VH: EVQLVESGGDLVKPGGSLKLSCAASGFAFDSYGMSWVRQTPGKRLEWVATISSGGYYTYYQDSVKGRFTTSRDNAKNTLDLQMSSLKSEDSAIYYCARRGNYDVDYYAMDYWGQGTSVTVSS VL: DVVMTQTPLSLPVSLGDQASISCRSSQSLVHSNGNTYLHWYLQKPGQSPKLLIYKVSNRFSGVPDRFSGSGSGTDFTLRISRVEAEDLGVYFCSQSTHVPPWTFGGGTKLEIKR : 52%
murine monoclonal antibody 6D11 (antibody, mouse IgG1, V domains shown, Mouse IgG1, kappa, from hybridoma; also called m338-6D11.8) VH: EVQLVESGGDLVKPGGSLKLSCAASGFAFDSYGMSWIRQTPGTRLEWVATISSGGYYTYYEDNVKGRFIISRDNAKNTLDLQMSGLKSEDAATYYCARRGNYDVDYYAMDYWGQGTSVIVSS VL: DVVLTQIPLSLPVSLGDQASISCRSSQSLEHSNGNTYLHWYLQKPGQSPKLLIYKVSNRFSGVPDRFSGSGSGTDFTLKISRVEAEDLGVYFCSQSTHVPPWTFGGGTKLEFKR : 43%

// next entry
Reported % Annexin V/PI-positive cells, LNCaP, 3.0 µg/ml mAb for murine monoclonal antibody 12H8 (antibody, mouse IgG2a, V domains shown, Mouse IgG2a, kappa, from hybridoma; also called m342-12H8.3; m12H8) VH: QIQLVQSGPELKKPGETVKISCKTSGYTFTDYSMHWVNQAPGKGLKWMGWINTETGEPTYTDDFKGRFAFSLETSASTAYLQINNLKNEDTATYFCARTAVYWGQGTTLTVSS VL: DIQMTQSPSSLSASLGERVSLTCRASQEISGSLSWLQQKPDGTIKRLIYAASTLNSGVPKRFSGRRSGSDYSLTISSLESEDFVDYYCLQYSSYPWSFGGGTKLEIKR : what is it?
67%
